FYI, the data here is from patent US8153651B2.

target: hVR1 (Homo sapiens); construct: expressed in transfected cells; host or cells: T-REx System cell line (Invitrogen Cat# R710-07), called 'human keratinocyte cell line' and 'HEK 293 cells'; vector pcDNA5/TO (Invitrogen Cat# V1033-20); expression induced with doxycycline; assay: Calcium uptake assay (FLIPR), inhibition of agonist-induced calcium influx in cells expressing hVR1; assay type: cell-based; conditions: agonist protons, low pH solution pH 5.7; cells expressing human VR1; 2 or 30 min pre-incubation; read-out: IC50 (nM) Low pH
Recorded IC50, one value per entry.

Below: 5 molecules and their reported IC50.
INSERT INTO assay_data (molecule, result_type, measured_result) VALUES
  ('Cc1cc([C@@H](C)NC(=O)C2COc3ccc(Cl)cc3C2)c(F)cc1NS(C)(=O)=O (stereo partly drawn) [Example 6]', 'IC50', '< 100 nM'),
  ('Cc1cc([C@@H](C)NC(=O)[C@@H]2CCc3nc(C(C)(C)C(F)(F)F)ccc3C2)c(F)cc1NS(C)(=O)=O [Example 9]', 'IC50', '< 100 nM'),
  ('Cc1cc([C@@H](C)NC(=O)C2=Cc3cc(Cl)ccc3OC2)c(F)cc1NS(C)(=O)=O [Example 4]', 'IC50', '< 100 nM'),
  ('Cc1cc([C@@H](C)NC(=O)C2CN(C)c3cc(C(F)(F)F)ccc3O2)c(F)cc1NS(C)(=O)=O (stereo partly drawn) [Example 7]', 'IC50', '< 100 nM'),
  ('Cc1cc([C@@H](C)NC(=O)C2CCc3ccccc3C2)c(F)cc1NS(C)(=O)=O (stereo partly drawn) [Example 3]', 'IC50', '101 to 500 nM');

Next item in the queue.
Recorded IC50 for COC(C)(C)c1ccc2c(n1)CC[C@@H](C(=O)N[C@H](C)c1cc(C)c(NS(C)(=O)=O)cc1F)C2 (single isomer, unassigned) [Example 14] , please?
101 to 500 nM

* * *

biological target: hVR1 (Homo sapiens, UniProt Q8NER1); construct: expressed in transfected cells; host or cells: T-REx System cell line (Invitrogen Cat# R710-07), called 'human keratinocyte cell line' and 'HEK 293 cells'; vector pcDNA5/TO (Invitrogen Cat# V1033-20); expression induced with doxycycline; assay: Calcium uptake assay (FLIPR), inhibition of agonist-induced calcium influx in cells expressing hVR1; format: cell-based; conditions: IC50 (nM) Capsaicin, agonist capsaicin at 10 nM or its EC50; cells expressing human VR1; 2 or 30 min pre-incubation
Sequence (Q8NER1 whole entry): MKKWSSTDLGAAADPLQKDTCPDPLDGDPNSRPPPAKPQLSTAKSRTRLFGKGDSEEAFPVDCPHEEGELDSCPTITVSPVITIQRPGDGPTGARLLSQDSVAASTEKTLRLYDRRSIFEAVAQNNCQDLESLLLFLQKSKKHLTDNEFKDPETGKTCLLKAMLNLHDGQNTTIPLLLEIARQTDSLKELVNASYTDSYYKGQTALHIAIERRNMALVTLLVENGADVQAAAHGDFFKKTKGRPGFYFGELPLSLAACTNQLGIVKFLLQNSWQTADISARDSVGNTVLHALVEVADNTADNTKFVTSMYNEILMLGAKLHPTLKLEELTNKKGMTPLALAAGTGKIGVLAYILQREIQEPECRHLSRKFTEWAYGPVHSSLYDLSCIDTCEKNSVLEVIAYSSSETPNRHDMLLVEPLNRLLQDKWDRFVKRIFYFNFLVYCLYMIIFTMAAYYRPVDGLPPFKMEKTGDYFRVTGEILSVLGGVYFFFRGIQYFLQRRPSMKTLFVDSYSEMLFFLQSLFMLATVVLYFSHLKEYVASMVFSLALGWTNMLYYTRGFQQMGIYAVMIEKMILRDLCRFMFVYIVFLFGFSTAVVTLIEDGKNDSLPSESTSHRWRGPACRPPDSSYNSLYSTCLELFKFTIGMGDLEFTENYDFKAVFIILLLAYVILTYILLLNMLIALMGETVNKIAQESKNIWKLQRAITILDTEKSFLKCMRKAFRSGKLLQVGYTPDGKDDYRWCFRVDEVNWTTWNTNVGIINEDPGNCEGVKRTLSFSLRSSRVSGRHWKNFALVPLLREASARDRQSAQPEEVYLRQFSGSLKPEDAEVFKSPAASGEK
Catalogue of IC50 values

Solved entries (count: 4):
INSERT INTO results (molecule, measured_result) VALUES
  ('Cc1cc([C@@H](C)NC(=O)C2CCc3nc(C(C)(C)C(F)(F)F)ccc3C2)c(F)cc1NS(C)(=O)=O (some centres unmarked)', '< 100 nM'),
  ('COc1ccc2c(c1)CCC(C(=O)NC(C)c1cc(C)c(NS(C)(=O)=O)cc1F)C2 (centres unmarked)', '101 to 500 nM'),
  ('Cc1cc([C@@H](C)NC(=O)[C@H]2COc3ccc(C(F)(F)F)cc3O2)c(F)cc1NS(C)(=O)=O', '< 100 nM'),
  ('Cc1cc([C@@H](C)NC(=O)C2COc3ccc(Cl)cc3C2)c(F)cc1NS(C)(=O)=O (some centres unmarked)', '< 100 nM');

Look up IC50: Cc1cc([C@@H](C)NC(=O)C2CCc3ccccc3C2)c(F)cc1NS(C)(=O)=O (some centres unmarked)
< 100 nM

Suppose we examine the molecule Cc1cc([C@@H](C)NC(=O)C2CCc3ccccc3O2)c(F)cc1NS(C)(=O)=O (some centres unmarked) ; what IC50 value has been reported?
101 to 500 nM

Requested field: IC50. Item: COc1ccc2c(c1)CCC(C(=O)N[C@H](C)c1cc(C)c(NS(C)(=O)=O)cc1F)C2C (some centres unmarked)
101 to 500 nM

Please give the measured IC50 for this molecule: Cc1cc([C@@H](C)NC(=O)C2CCc3nc(C(C)(C)O)ccc3C2)c(F)cc1NS(C)(=O)=O (some centres unmarked)
101 to 500 nM
